src = PubChem BioAssay (NCATS)

# measurement.description: Cell Viability - LYMP2-014 (AID 983);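 note: cells exposed to compound for 24 h at 37 °C; nearly all actives have a fitted effect of over 50% in size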
# measurement.parameters: LYMP2-014 lymphoblastoid cells, viability qHTS; series mostly up to 92.2 µM
# Excerpt: NIH Chemical Genomics Center [NCGC] NIH Molecular Libraries Screening Centers Network [MLSCN] National Institutes of Environmental Health Sciences [NIEHS] National Toxicology Program [NTP] We have developed a 1536-well cell-based assay for quantitative high throughput screening (qHTS) against a number of cell lines to determine in vitro cytotoxicity of small molecules. […] 8. Detection; Luminescence; Viewlux plate reader […]
Inconclusive results are not listed. Activity calls are given as the source filed them. Calls come from the whole dose curve; as a rule, active = well fitted cell-killing curve with a large enough effect; inconclusive = small, poorly fitted or top-dose-only effect; inactive = flat fitted curve, though single readings scatter.
Select the matching outcome among active, inactive

Some solved cases for reference:
CN(C)/N=N/c1nc[nH]c1C(N)=O = inactive
CC(O)C(=O)O (centres undefined) = inactive
C[C@]12CC[C@@H]3c4ccc(O)cc4CC[C@H]3[C@@H]1CC[C@@H]2O = inactive

## Task For O=c1ccc2ccccc2o1 , which call appears in the assay record?
## Result inactive

## Task For O=C1OC(c2ccc(O)cc2)(c2ccc(O)cc2)c2ccccc21 , which call appears in the assay record?
## Result inactive

## Task For C=CCc1ccc(O)c(OC)c1 , which call appears in the assay record?
## Result inactive

## Task For COC1=CC(=O)C[C@@H](C)[C@]12Oc1c(Cl)c(OC)cc(OC)c1C2=O , which call appears in the assay record?
## Result inactive

## Task For O=C(O)CCCCC(=O)O , which call appears in the assay record?
## Result inactive

## Task For NC(=NCCCCCCN=C(N)/N=C(\N)Nc1ccc(Cl)cc1)/N=C(\N)Nc1ccc(Cl)cc1 , which call appears in the assay record?
## Result active
